target: CRBN-DDB1 (Homo sapiens (Human), UniProt Q96SW2); experiment: Fluorescence polarization (FP) assay for compound ligand binding to CRBN-DDB1; conditions: FP displacement of (−)-Thalidomide-Alexa Fluor or Pomalidomide-fluorescein probe (5 nM), 400 nM CRBN-DDB1, 60 min room temperature; Degrons, Compounds of the Present Invention
Sequence (Q96SW2 whole entry): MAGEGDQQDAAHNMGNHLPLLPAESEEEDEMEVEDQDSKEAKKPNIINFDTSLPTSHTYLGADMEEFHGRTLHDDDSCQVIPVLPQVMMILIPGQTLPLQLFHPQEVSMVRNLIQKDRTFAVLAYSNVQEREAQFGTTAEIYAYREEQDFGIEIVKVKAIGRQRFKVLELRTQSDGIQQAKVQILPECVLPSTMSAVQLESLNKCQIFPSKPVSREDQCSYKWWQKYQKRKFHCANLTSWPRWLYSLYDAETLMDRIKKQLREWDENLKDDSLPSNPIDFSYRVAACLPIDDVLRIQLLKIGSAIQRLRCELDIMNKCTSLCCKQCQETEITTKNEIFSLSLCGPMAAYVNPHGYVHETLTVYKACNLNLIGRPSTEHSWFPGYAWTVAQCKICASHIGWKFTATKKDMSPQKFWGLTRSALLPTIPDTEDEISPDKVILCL
Sequence (Q16531 whole entry partner): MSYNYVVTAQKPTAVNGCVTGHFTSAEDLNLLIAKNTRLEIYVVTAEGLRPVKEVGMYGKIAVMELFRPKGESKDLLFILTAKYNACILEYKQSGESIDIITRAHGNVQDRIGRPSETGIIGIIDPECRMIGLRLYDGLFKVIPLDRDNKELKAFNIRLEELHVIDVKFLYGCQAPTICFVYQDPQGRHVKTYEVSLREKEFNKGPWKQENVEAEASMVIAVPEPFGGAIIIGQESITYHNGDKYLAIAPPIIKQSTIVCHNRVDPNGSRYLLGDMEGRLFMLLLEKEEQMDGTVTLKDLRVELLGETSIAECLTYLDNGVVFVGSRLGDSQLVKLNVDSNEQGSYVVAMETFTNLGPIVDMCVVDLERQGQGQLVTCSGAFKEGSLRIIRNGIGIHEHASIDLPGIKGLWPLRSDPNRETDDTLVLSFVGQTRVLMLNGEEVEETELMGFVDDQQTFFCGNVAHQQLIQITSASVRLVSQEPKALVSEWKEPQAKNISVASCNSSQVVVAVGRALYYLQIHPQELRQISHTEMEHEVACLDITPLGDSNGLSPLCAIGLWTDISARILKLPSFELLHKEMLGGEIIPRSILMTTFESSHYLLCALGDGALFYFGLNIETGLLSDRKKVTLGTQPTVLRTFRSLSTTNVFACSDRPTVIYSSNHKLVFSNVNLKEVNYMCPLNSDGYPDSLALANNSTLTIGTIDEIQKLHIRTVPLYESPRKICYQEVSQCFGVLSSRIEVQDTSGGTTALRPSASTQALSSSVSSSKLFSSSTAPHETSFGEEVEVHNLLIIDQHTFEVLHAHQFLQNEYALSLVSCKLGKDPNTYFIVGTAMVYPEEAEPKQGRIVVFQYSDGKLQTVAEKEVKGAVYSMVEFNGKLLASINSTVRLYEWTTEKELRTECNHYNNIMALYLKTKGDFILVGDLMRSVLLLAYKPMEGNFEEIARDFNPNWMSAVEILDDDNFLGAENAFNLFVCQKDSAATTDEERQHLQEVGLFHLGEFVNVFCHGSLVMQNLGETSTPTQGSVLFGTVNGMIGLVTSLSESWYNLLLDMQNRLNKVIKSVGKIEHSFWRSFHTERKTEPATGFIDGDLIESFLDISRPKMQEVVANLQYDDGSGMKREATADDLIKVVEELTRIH
pKd: −log10 of the molar value.
quantity.kind: pKd

**Q:** Query the reported pKd for CRBN-DDB1 (Homo sapiens (Human), UniProt Q96SW2); item: Cc1cnc(NC2CCC(=O)NC2=O)cn1 (stereo not drawn)
**A:** 4.30 to 5.00

**Q:** Item: CN(C1CC(=O)N(c2ccccc2)C1)C1CCC(=O)NC1=O (stereo not drawn)
**A:** 4.00 to 4.30

**Q:** Item: COc1ccc(N(C)C2CCC(=O)NC2=O)c(OC)c1 (stereo not drawn)
**A:** 4.30 to 5.00

**Q:** Follow-up item: NCc1ccc(NC2CCC(=O)NC2=O)cc1 (stereo not drawn)
**A:** 4.30 to 5.00

**Q:** Now the same for O=C1CCC(Nc2cnn(-c3ccccc3)c2)C(=O)N1 (stereo not drawn)
**A:** 4.30 to 5.00

**Q:** Likewise for CN(C1CN(C(=O)OC(C)(C)C)C1)C1CCC(=O)NC1=O (stereo not drawn) ?
**A:** 4.00 to 4.30

**Q:** // query: CN(c1cccc(N2CCNCC2)c1)C1CCC(=O)NC1=O (stereo not drawn)
**A:** 4.30 to 5.00

**Q:** Input O=C1CCC(Nc2ccccc2)C(=O)N1 (stereo not drawn)
**A:** 4.30 to 5.00

**Q:** Similarly, O=C1CCC(Nc2cccnc2)C(=O)N1 (stereo not drawn) [Compound 80] ?
**A:** 4.30 to 5.00

**Q:** NCc1cccc(NC2CCC(=O)NC2=O)c1 (stereo not drawn) , same question.
**A:** 4.30 to 5.00

**Q:** Can you check Cn1cnc2c(NC3CCC(=O)NC3=O)cccc21 (stereo not drawn) next?
**A:** 4.30 to 5.00

**Q:** Okay, and CN(c1ccc(F)cc1F)C1CCC(=O)NC1=O (stereo not drawn) ?
**A:** 4.00 to 4.30

**Q:** Another molecule to check: CC(C)(C)OC(=O)N1Cc2cnc(NC3CCC(=O)NC3=O)nc2C1 (stereo not drawn)
**A:** 4.00 to 4.30

**Q:** And the next one, O=C1CCC(Nc2cccnc2)C(=O)N1 (stereo not drawn) [Compound 115] ?
**A:** 4.30 to 5.00

**Q:** Okay, and COc1cc(OC)nc(NC2CCC(=O)NC2=O)n1 (stereo not drawn) ?
**A:** 4.00 to 4.30

**Q:** Request: CN1CC(N(C)C2CCC(=O)NC2=O)CC1=O (stereo not drawn)
**A:** 4.00 to 4.30

**Q:** For O=C1CCC(Nc2ccccc2OC(F)(F)F)C(=O)N1 (stereo not drawn) then?
**A:** 4.30 to 5.00

**Q:** One more molecule: CN1Cc2ccc(NC3CCC(=O)NC3=O)cc2C1=O (stereo not drawn)
**A:** 4.00 to 4.30

**Q:** Please answer likewise for CN(c1ccc(F)cc1)C1CCC(=O)NC1=O (stereo not drawn)
**A:** 4.30 to 5.00

**Q:** Now the same for O=C1CCC(Nc2ccc(N3CCNCC3)cc2)C(=O)N1 (stereo not drawn)
**A:** 4.30 to 5.00

**Q:** // next record O=C1CCC(Nc2ccc(F)cc2)C(=O)N1 (stereo not drawn)
**A:** 4.30 to 5.00

**Q:** Query CC(C)(C)OC(=O)N1CCC(c2ccc(NC3CCC(=O)NC3=O)nc2)CC1 (stereo not drawn) next
**A:** 4.30 to 5.00

**Q:** Cool, now O=C1CCC(Nc2ccc3ccccc3n2)C(=O)N1 (stereo not drawn)
**A:** 4.30 to 5.00

**Q:** Check O=C1CCC(Nc2ccccc2N2CCOCC2)C(=O)N1 (stereo not drawn) too.
**A:** 4.30 to 5.00

**Q:** Try the molecule CC(C)(C)OC(=O)N1CCC(n2cc(NC3CCC(=O)NC3=O)cn2)CC1 (stereo not drawn)
**A:** 4.00 to 4.30

**Q:** Please give the result for CN1CCc2ccc(NC3CCC(=O)NC3=O)cc2C1=O (stereo not drawn) too.
**A:** 4.30 to 5.00

**Q:** Now consider CN(CC(N)=O)C1CCC(=O)NC1=O (stereo not drawn) .
**A:** 4.30 to 5.00

**Q:** Subsequent entry: O=C1CCC(Nc2ccc3c(c2)CCNC3)C(=O)N1 (stereo not drawn)
**A:** 4.30 to 5.00

**Q:** Queued: O=C1CCC(Nc2ccc(C3CCNCC3)cn2)C(=O)N1 (stereo not drawn)
**A:** 4.30 to 5.00

**Q:** Moving on to COc1ccc(C(C)(C)C)cc1NC1CCC(=O)NC1=O (stereo not drawn)
**A:** 4.00 to 4.30

**Q:** Request: O=C1CCC(Nc2ccccc2CN2CCCC2)C(=O)N1 (stereo not drawn)
**A:** 4.30 to 5.00

**Q:** Now the molecule COc1ccc(C(F)(F)F)cc1NC1CCC(=O)NC1=O (stereo not drawn)
**A:** 4.30 to 5.00

**Q:** Another molecule to look at: CC(C)(C)OC(=O)N1CCN(c2nccc(NC3CCC(=O)NC3=O)n2)CC1 (stereo not drawn)
**A:** 4.00 to 4.30
